This section presents variants with their documented protein stability index values.
B1: KLHL14 (parent)
chain: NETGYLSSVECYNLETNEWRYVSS

- Variants of: B1
- ASSAY METHOD TEXT: protein stability index of a GFP-peptide fusion (GPS, HEK-293T) (PSI 1-6); higher = more stable;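 also: lentivirally expressed fusions sorted by FACS into six bins by GFP to DsRed ratio, PSI derived from sequencing read proportions per bin multiplied by bin number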
- CONDITION SUMMARY: c terminus: a fixed tail appended
OBSERVATION TYPE: protein stability index

{"columns": ["ITEM SEQUENCE", "ASSAY RESULT"],
 "data": [
  ["NETGYLSSVFCYNLETNEWRYVSS", 1.64],
  ["NETGYLSSVECYNLETNEWGYVSS", 3.06],
  ["NETGYLSCVECYNLETNEWRYVSS", 2.55],
  ["NETGYHSSVECYNLETNEWRYVSS", 4.23],
  ["NETGYLSSVPCYNLETNEWRYVSS", 2.83],
  ["NETGYLSSVECYNLETNEWMYVSS", 2.65],
  ["NETGYLSSVECYNLETNEWIYVSS", 2.3],
  ["NETGYLSSVECYNLETNEWRFVSS", 1.83],
  ["NYTGYLSSVECYNLETNEWRYVSS", 1.88],
  ["NVTGYLSSVECYNLETNEWRYVSS", 2.51],
  ["NETGYLSSVECYNLETNETRYVSS", 4.99],
  ["NETGYLSSVECYWLETNEWRYVSS", 1.71],
  ["NETGYLSSVECENLETNEWRYVSS", 4.24],
  ["NETGYLSSVVCYNLETNEWRYVSS", 1.71],
  ["NETGYLSSVECYNLETGEWRYVSS", 3.67],
  ["NITGYLSSVECYNLETNEWRYVSS", 2.37],
  ["NETGYLSSVECYMLETNEWRYVSS", 2.21],
  ["NETGYLSSVECLNLETNEWRYVSS", 3.67],
  ["NETGYLSSVECYNLETAEWRYVSS", 2.92],
  ["NETGYLSGVECYNLETNEWRYVSS", 3.76],
  ["NETGYLSSVECYNYETNEWRYVSS", 2.95],
  ["NETGYLSSVECYNLETNEWRYVSH", 3.82],
  ["NETGYLSSWECYNLETNEWRYVSS", 2.43],
  ["NETGYLSSVENYNLETNEWRYVSS", 4.18],
  ["NETGYLSSVECYNLETNEWWYVSS", 2.41],
  ["NETGYLSSVECYNLETNYWRYVSS", 2.57],
  ["NETGYLSSVECYNHETNEWRYVSS", 3.74],
  ["NETGYLISVECYNLETNEWRYVSS", 2.46],
  ["NETGYLSSVECYNLEPNEWRYVSS", 2.89],
  ["NETGYLSSVECYNLETNEWHYVSS", 2.83],
  ["NETGYLSYVECYNLETNEWRYVSS", 1.67],
  ["NETGELSSVECYNLETNEWRYVSS", 4.24],
  ["NETGYLSSVECYNLETNEWRYVSE", 3.77],
  ["NETGYLSSNECYNLETNEWRYVSS", 4.11],
  ["NETGYLSSVECYNLETNEWRYKSS", 3.25],
  ["IETGYLSSVECYNLETNEWRYVSS", 2.43],
  ["YETGYLSSVECYNLETNEWRYVSS", 2.79],
  ["NETGYLSSVECYNLETNEWRYVSD", 3.83],
  ["NETGYLSSVECYNLETNEWRYHSS", 2.18],
  ["NETGYLSSVECYNLETNEWRYVLS", 2.07],
  ["NETGYLSHVECYNLETNEWRYVSS", 2.17],
  ["HETGYLSSVECYNLETNEWRYVSS", 3.44],
  ["NETGYLSSVECYNLGTNEWRYVSS", 3.18],
  ["NETGFLSSVECYNLETNEWRYVSS", 3.71],
  ["NETGYLSSVECYNLETNEWRYISS", 2.47],
  ["NETGYLSSVECYNLETNEWRYMSS", 2.95],
  ["NETGYLSSVECYILETNEWRYVSS", 1.52],
  ["NETGYLSSVECYNLETNEWRAVSS", 3.79],
  ["NETGYLSSVECYNLETNEWREVSS", 3.66],
  ["NETGYLSSVECYNLETNRWRYVSS", 3.68],
  ["NETGYLSSVECYNTETNEWRYVSS", 3.62],
  ["NETGYLSSVECYNLETNEWRYVSM", 3.93],
  ["NETGYLSSVECYNLETNEWRYVQS", 3.73],
  ["NETGYLSSVELYNLETNEWRYVSS", 2.97],
  ["NETNYLSSVECYNLETNEWRYVSS", 3.82],
  ["NETGYLSSVECYNLETNEWKYVSS", 3.6],
  ["NETGILSSVECYNLETNEWRYVSS", 4],
  ["NETGYLSSVECYNLETNEWRYVSN", 3.91],
  ["NETGYLSSVECYNLETNEWFYVSS", 2.2],
  ["NETGYLSSVECYNLETNEWRTVSS", 3.93],
  ["NETGYLDSVECYNLETNEWRYVSS", 3.89],
  ["NETGYLSSVECYNLETYEWRYVSS", 2.64],
  ["NETGYLSSVECYNLETVEWRYVSS", 3.06],
  ["NETGYLSSVECYNLETNEWRYRSS", 3.2],
  ["NETGYLSSVECYNSETNEWRYVSS", 4.68],
  ["NETGYLSSVECYNLETNEWRYVSQ", 3.6],
  ["NETGYLMSVECYNLETNEWRYVSS", 2.48],
  ["NETGYLSSVGCYNLETNEWRYVSS", 2.72],
  ["NEDGYLSSVECYNLETNEWRYVSS", 4.12],
  ["NETGYLSSVECYNLETMEWRYVSS", 3.19],
  ["NETGYLSSVECYNLKTNEWRYVSS", 3.66],
  ["NETGYLSSVECYNLETNEWPYVSS", 3.35],
  ["CETGYLSSVECYNLETNEWRYVSS", 2.41],
  ["NETGYLSSVECYNLETPEWRYVSS", 3.42],
  ["NETGGLSSVECYNLETNEWRYVSS", 4.01],
  ["NETGYLSSVECYNLETNLWRYVSS", 3.02],
  ["NETGYLSSVECYNLETNCWRYVSS", 2.55],
  ["NETGYLSSVECYGLETNEWRYVSS", 2.67],
  ["NETGYLSSVECYNLETNEWRYVSV", 3.38],
  ["NEMGYLSSVECYNLETNEWRYVSS", 2.78],
  ["NETGYLSSVECYNLETNEWLYVSS", 1.88],
  ["NETVYLSSVECYNLETNEWRYVSS", 2.58],
  ["NETGYASSVECYNLETNEWRYVSS", 3.63],
  ["NETGYLSSVECYNLETNEWRMVSS", 3.82]
]}

Just for reference, the supplement of paper PMC10567573 is where these values come from.
